Listed binders paired with reported EC50 Rat APJ Receptor
Molecular target: T1, rat APJ receptor (rat, UniProt Q9JHG3 1-377)
T1 sequence (looked up): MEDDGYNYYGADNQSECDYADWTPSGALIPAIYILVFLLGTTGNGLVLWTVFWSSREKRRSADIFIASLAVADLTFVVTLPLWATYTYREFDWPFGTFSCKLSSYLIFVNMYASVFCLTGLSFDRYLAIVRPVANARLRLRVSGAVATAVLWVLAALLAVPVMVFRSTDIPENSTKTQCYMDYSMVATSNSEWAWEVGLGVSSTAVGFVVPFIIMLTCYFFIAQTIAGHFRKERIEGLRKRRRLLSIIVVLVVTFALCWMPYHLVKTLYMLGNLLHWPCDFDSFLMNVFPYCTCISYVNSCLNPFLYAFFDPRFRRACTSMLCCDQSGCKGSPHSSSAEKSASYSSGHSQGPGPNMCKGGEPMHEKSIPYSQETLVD
Assay: cell-based or functional assay
Non-standard residues stand in square brackets, D forms with d. Oic = O=C(O)[C@@H]1C[C@@H]2CCCC[C@@H]2N1; Phe(4-Cl) = N[C@@H](Cc1ccc(Cl)cc1)C(=O)O; hArg = N=C(N)NCCCC[C@H](N)C(=O)O; Cha = N[C@@H](CC1CCCCC1)C(=O)O; αMeOrn = C[C@](N)(CCCN)C(=O)O; Nle = CCCC[C@H](N)C(=O)O; Orn = NCCC[C@H](N)C(=O)O; Mpa = O=C(O)CCS
Measure Name: EC50 Rat APJ Receptor (nM)

[
  {
    "Binder": "Ac-[Orn]F[hArg][hArg]Q[hArg]P[hArg][Cha]SH[αMeOrn]G[Oic][Nle]P[Phe(4-Cl)]-OH [apelin polypeptide SEQ ID NO: 36]",
    "Measure Name": "EC50 Rat APJ Receptor",
    "Unit Annotation": "nM",
    "Quantitative Readout": 1.94
  },
  {
    "Binder": "{20K mPEGacetamide}-[Mpa]RQRP[hArg][Cha]SHKG[Oic][Nle]P[Phe(4-Cl)]-OH (numbers in words are those of the source; also: 20 kDa PEG conjugate) [apelin polypeptide SEQ ID NO: 100]",
    "Measure Name": "EC50 Rat APJ Receptor",
    "Unit Annotation": "nM",
    "Quantitative Readout": 45.4
  }
]
